tested on: A549; assay: Antiproliferative activity against human A549 cells after 48 hrs by MTT assay; settings: A549, 48 h
assayMetric: GI50 (µM)
One number for each entry, in µM.

Answered cases to consult:
{"smilesInput": "COc1ccc(/C=C2/C(=O)Nc3ccc(F)cc32)c(-c2ccc(Cl)cc2)c1", "assayMetric": "GI50", "reportedMeasurement": 58.8}
{"smilesInput": "CC(C)Oc1ccc(/C=C2/C(=O)Nc3cc(Cl)ccc32)c(OC(C)C)c1", "assayMetric": "GI50", "reportedMeasurement": 30.4}
{"smilesInput": "COc1ccc(/C=C2/C(=O)Nc3ccccc32)c(OC)c1", "assayMetric": "GI50", "reportedMeasurement": 52.5}
{"smilesInput": "COc1ccc(C2=N[C@@H](c3ccc(Cl)cc3)[C@@H](c3ccc(Cl)cc3)N2C(=O)N2CCNC(=O)C2)c(OC(C)C)c1", "assayMetric": "GI50", "reportedMeasurement": 47.6}
{"smilesInput": "COc1ccc(/C=C2/C(=O)Nc3ccc(Cl)cc32)c(-c2ccc(Cl)cc2)c1", "assayMetric": "GI50", "reportedMeasurement": 86.7}

Parameters: items (list). Returns: GI50 for each item.
1. CCCOc1ccc(/C=C2/C(=O)Nc3ccc(Cl)cc32)c(OCCC)c1
2. COc1cccc(/C=C2/C(=O)Nc3cc(Cl)ccc32)c1-c1ccc(C#N)cc1
3. CC(C)Oc1ccc(/C=C2/C(=O)Nc3ccc(Cl)cc32)c(OC(C)C)c1

1: 30.2; 2: 81.6; 3: 42.6

----------
tested on: A549; assay: Antiproliferative activity against human A549 cells after 48 hrs by MTT assay; details: A549, 48 h
Answer each item with its documented GI50.

Parameters: items (list). Returns: GI50 for each item.
1. COc1ccc(/C=C2/C(=O)Nc3ccc(Cl)cc32)c(Br)c1
2. COc1ccc(/C=C2/C(=O)Nc3cc(F)ccc32)c(-c2ccc(C#N)cc2)c1
3. COc1ccc(/C=C2/C(=O)Nc3cc(F)ccc32)c(OC)c1

1: > 100 µM; 2: > 100 µM; 3: > 100 µM
